Hey, just so you know, these numbers are from PubChem BioAssay (NCATS).

- Tested on: CP215
- METHOD: qHTS profiling for inhibitors of Plasmodium falciparum proliferation (AID 504749); note: nearly all actives have a fitted effect of over 60% in size
- RECORDED CONDITIONS: P. falciparum in erythrocytes, SYBR Green DNA, 72 h; series mostly up to 28.7 µM
Records with an inconclusive call do not appear. Activity calls are given as the source filed them. Calls come from the whole dose curve; as a rule, active = well fitted inhibition curve with a large enough effect; inconclusive = small, poorly fitted or top-dose-only effect; inactive = flat fitted curve, though single readings scatter.
Allowed answers: true (active), false (inactive)

INSERT INTO assay_data (compound, class_assignment) VALUES
  ('NCCS(=O)(=O)O', 'false');

GET /call?item= COc1ccccc1N1CCN(CC(O)COc2cccc3ccccc23)CC1 (stereo not drawn) returns the recorded outcome of this test.
false

GET /call?item= NC(=O)NO returns the recorded outcome of this test.
false

GET /call?item= NS(=O)(=O)c1cc2c(cc1Cl)NCNS2(=O)=O returns the recorded outcome of this test.
false

GET /call?item= O=c1c(O)c(-c2ccc(O)c(O)c2)oc2cc(O)cc(O)c12 returns the recorded outcome of this test.
true

GET /call?item= COC(=O)Nc1nc2ccc(C(=O)c3cccs3)cc2[nH]1 returns the recorded outcome of this test.
false

GET /call?item= CS(=O)(=O)Nc1ccc([N+](=O)[O-])cc1Oc1ccccc1 returns the recorded outcome of this test.
false

GET /call?item= Cc1cc(C(C)(C)C)c(O)c(C)c1CC1=NCCN1 returns the recorded outcome of this test.
false

GET /call?item= Cn1cnc2c1c(=O)[nH]c(=O)n2C returns the recorded outcome of this test.
false

GET /call?item= Nc1nnc(-c2cccc(Cl)c2Cl)c(N)n1 returns the recorded outcome of this test.
false

GET /call?item= Cc1cnc(C(=O)NCCc2ccc(S(=O)(=O)NC(=O)NC3CCCCC3)cc2)cn1 returns the recorded outcome of this test.
false

GET /call?item= CC(C)(Oc1ccc(C2CC2(Cl)Cl)cc1)C(=O)O (stereo not drawn) returns the recorded outcome of this test.
false

GET /call?item= CC12CC3CC(C)(C1)CC(N)(C3)C2 returns the recorded outcome of this test.
false
